# run.description: equilibrium solubility in citrate buffer saline pH6 with cyclodextrins (shake flask method)
# Format: physicochemical
# assay.conditions: citrate buffer saline with cyclodextrin, pH 6, aqueous with cosolvent or surfactant or cyclodextrin, thermodynamic from solid, 110 mg/ml MBCD (Kleptose Crysmeb, Roquette), read-out: Solubility of compound (A)

>  <molecule>
CC(C)(NC(=O)C(N)Cc1c[nH]c2ccccc12)C(=O)O (stereo not shown)

>  <solubility>
28.7 mg/mL

$$$$

---

# run.description: equilibrium solubility in water at 20 °C with varying cyclodextrin content
# Type: physicochemical
# assay.conditions: thermodynamic from solid, water without cyclodextrin

>  <compound>
CC(C)(NC(=O)C(N)Cc1c[nH]c2ccccc12)C(=O)O (stereo not shown)

>  <solubility thermodynamic [mg/mL]>
11.6

$$$$
